pKd by entry:
# tgt: T1, His-tagged human TREM2 ECD (human, UniProt Q9NZC2 19-172)
# T1 construct: Biacore and HDX say only recombinant human TREM2 (ECD); also called recombinant human TREM2; hTREM2
# T1 sequence: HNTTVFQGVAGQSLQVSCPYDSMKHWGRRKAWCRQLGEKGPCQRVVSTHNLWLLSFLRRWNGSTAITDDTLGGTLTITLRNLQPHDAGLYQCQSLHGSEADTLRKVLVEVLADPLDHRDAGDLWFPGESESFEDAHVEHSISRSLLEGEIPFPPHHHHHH
# protocol: SPR (Biacore)
pKd: −log10 of the molar value.

| binder | pKd |
| --- | --- |
| CL0020123-4 (antibody, V domains shown, Humanized variant of CL0020123 (hVH NGES/2 m, Vk graft); also called Clone CL0020123-4) VH: QVQLVQSGAEVKKPGASVKVSCKASGFSIEDFYIHWVRQAPGQGLEWMGWIDPENGESKYAPKFQGRATITADTSTSTAYMELSSLRSEDTAVYYCHADHGNYGSTMDYWGQGTLVTVSS VL: DIQMTQSPSSLSASVGDRVTITCHASQHINVWLSWYQQKPGKAPKLLIYKASNLHTGVPSRFSGSGSGTDFTLTISSLQPEDFATYYCQQGQTYPRTFGQGTKVEIK | 9.77 |
| CL0020188-6 (antibody, V domains shown, Humanized variant of CL0020188 (hVH NA/3 m, hVL NG/graft); also called Clone CL0020188-6) VH: EVQLVESGGGLVQPGGSLRLSCAGSGFTFTDFYMSWVRQAPGKGPEWLSVIRNKANAYTAGYNPSVKGRFTISRDNSKNTLYLQMNSLRAEDTAVYYCARLTYGFDYWGQGTLVTVSS VL: DIVMTQTPLSLPVTPGEPASISCQSSKSLLHSNGKTYLNWYLQKPGQSPQLLIYWMSTRASGVPDRFSGSGSGTDFTLKISRVEAEDVGVYYCQQFLEYPFTFGQGTKVEIK | 8.40 |
| CL0020123-1 (antibody, V domains shown, Humanized variant of CL0020123 (hVH NGDS/2 m, Vk graft); also called Clone CL0020123-1) VH: QVQLVQSGAEVKKPGASVKVSCKASGFSIEDFYIHWVRQAPGQGLEWMGWIDPENGDSKYAPKFQGRATITADTSTSTAYMELSSLRSEDTAVYYCHADHGNYGSTMDYWGQGTLVTVSS VL: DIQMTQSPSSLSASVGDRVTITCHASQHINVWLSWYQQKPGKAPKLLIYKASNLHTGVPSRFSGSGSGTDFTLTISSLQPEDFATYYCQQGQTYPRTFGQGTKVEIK | 9.85 |
| CL0020123-3 (antibody, V domains shown, Humanized variant of CL0020123 (hVH QGDS/2 m, Vk graft); also called Clone CL0020123-3) VH: QVQLVQSGAEVKKPGASVKVSCKASGFSIEDFYIHWVRQAPGQGLEWMGWIDPEQGDSKYAPKFQGRATITADTSTSTAYMELSSLRSEDTAVYYCHADHGNYGSTMDYWGQGTLVTVSS VL: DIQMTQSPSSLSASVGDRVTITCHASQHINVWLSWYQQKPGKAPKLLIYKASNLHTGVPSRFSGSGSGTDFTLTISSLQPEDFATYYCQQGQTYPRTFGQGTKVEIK | 9.40 |

Where these numbers come from: patent US20220119522A1
